Entries and their MIC
test system: Pseudomonas aeruginosa; test: Antimicrobial activity against Pseudomonas aeruginosa MTCC 741 after 24 hrs by broth microdilution assay; type: functional; settings: MTCC 741, 24 h
Give the number first and the unit second.

compound | recorded_metric | measurement
NS(=O)(=O)c1ccc(N2N=C(c3ccc(F)cc3)CC2c2cn(-c3ccccc3)nc2-c2ccc(F)cc2)cc1 (stereo unspecified) | MIC | 32 µg/mL

Sample O=C(O)c1cn(C2CC2)c2cc(N3CCNCC3)c(F)cc2c1=O — what was its MIC? 4 µg/mL

Sample NS(=O)(=O)c1ccc(N2N=C(c3ccc(F)cc3)CC2c2cn(-c3ccccc3)nc2-c2ccccc2)cc1 (stereo unspecified) — what was its MIC? 32 µg/mL

Sample Cc1ccc(-c2nn(-c3ccccc3)cc2C2CC(c3ccc(F)cc3)=NN2c2ccc(S(N)(=O)=O)cc2)cc1 (stereo unspecified) — what was its MIC? 64 µg/mL

Sample NS(=O)(=O)c1ccc(N2N=C(c3ccccc3)CC2c2cn(-c3ccccc3)nc2-c2ccccc2)cc1 (stereo unspecified) — what was its MIC? 64 µg/mL

Sample NS(=O)(=O)c1ccc(N2N=C(c3ccc(F)cc3)CC2c2cn(-c3ccccc3)nc2-c2ccc(Br)cc2)cc1 (stereo unspecified) — what was its MIC? 128 µg/mL
